- method_summary: Kinetic solubility of compound at pH 6.8 by turbidimetry method
- Type: physicochemical
- test_parameters: buffer, read-out: Kinetic_solubility
quantity: solubility kinetic (µM)
# output: bare number, implied unit µM

Past entries and their recorded results:
O=C(NCCCCc1ccccc1)c1cccc(C2SCC(=O)N2c2cccc(-c3c[nH]nn3)c2)c1 (centres undefined)    20
COc1ccccc1N1C(=O)CSC1c1cc(F)cc(C(=O)NCCCCc2ccccc2)c1 (centres undefined)    10
C#Cc1cc(C(=O)NCCCCc2ccccc2)cc(C2SCC(=O)N2c2ccccc2OC)c1 (centres undefined)    10
O=C(NCCCCc1ccccc1)c1cccc(C2SCC(=O)N2c2cccc(C3CC3)c2)c1 (centres undefined)    10
O=C(NCCCCc1ccccc1)c1cccc(C2SCC(=O)N2c2ccc(C3CC3)cc2)c1 (centres undefined)    2
O=C(NCCCCc1ccccc1)c1cccc(C2SCC(=O)N2c2ccccn2)c1 (centres undefined)    20
COc1ccc(F)cc1N1C(=O)CSC1c1cccc(C(=O)NCCCCc2ccccc2)c1 (centres undefined)    10
Cc1cccc(N2C(=O)CSC2c2cccc(C(=O)NCCCCc3ccccc3)c2)c1 (centres undefined)    10

Prompt: Return the recorded solubility kinetic value; entry: C#Cc1cccc(N2C(=O)CSC2c2cccc(C(=O)NCCCCc3ccccc3)c2)c1 (centres undefined)
Completion: 10
